Catalogue of IC50 readings, one per entry.
- System: HSSY-II complex spheroid growth, percent test/control
- assay.method.text: Anticancer human tumor HSSY-II cell line growth inhibition [Asc];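 further: spheroids exposed to drug for 7 days before reading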
- assay.conditions: curve of first compound; second compound 10 µM

// below: answered molecules
molecule	IC50
Cc1nc(N2CCC3(CC2)COC(C)C3N)c(CO)nc1Sc1ccnc(N)c1Cl (centres undefined) + Cc1c(S(C)(=O)=O)c(-c2cc(F)cc(N3CCN(c4ccc(NS(=O)(=O)c5ccc(NC(CCN6CCC(C(=O)OCCCP(=O)(O)O)CC6)CSc6ccccc6)c(S(=O)(=O)C(F)(F)F)c5)cc4)CC3)c2)c(-c2ccc(Cl)cc2)n1C(C)C	> 3000 nM
NC1CCC(NC2CC2c2ccccc2)CC1 (centres undefined) + Cc1c(S(C)(=O)=O)c(-c2cc(F)cc(N3CCN(c4ccc(NS(=O)(=O)c5ccc(NC(CCN6CCC(C(=O)OCCCP(=O)(O)O)CC6)CSc6ccccc6)c(S(=O)(=O)C(F)(F)F)c5)cc4)CC3)c2)c(-c2ccc(Cl)cc2)n1C(C)C	> 100 nM
CNC(C)C(=O)NC1CN(S(=O)(=O)c2cccc(S(=O)(=O)N3CCC4CCC(C(=O)NC(c5ccccc5)c5ccccc5)N4C(=O)C(NC(=O)C(C)NC)C3)c2)CCC2CCC(C(=O)NC(c3ccccc3)c3ccccc3)N2C1=O (centres undefined) + Cc1c(S(C)(=O)=O)c(-c2cc(F)cc(N3CCN(c4ccc(NS(=O)(=O)c5ccc(NC(CCN6CCC(C(=O)OCCCP(=O)(O)O)CC6)CSc6ccccc6)c(S(=O)(=O)C(F)(F)F)c5)cc4)CC3)c2)c(-c2ccc(Cl)cc2)n1C(C)C	> 1000 nM

Kindly consider the entry below.
Task item: Give reported IC50 value for C=CC(=O)N1CCN(c2nc(=O)n(-c3c(C)ccnc3C(C)C)c3nc(-c4c(O)cccc4F)c(F)cc23)C(C)C1 (centres undefined) + Cc1c(S(C)(=O)=O)c(-c2cc(F)cc(N3CCN(c4ccc(NS(=O)(=O)c5ccc(NC(CCN6CCC(C(=O)OCCCP(=O)(O)O)CC6)CSc6ccccc6)c(S(=O)(=O)C(F)(F)F)c5)cc4)CC3)c2)c(-c2ccc(Cl)cc2)n1C(C)C
Reply: > 10000 nM
